# System: differentiated SH-SY5Y cells
# Test Name: Toxicity screening on differentiated SH-SY5Y cells
# Type: cell-based, human
# Test Conditions: 10 μM, MTT, mean ± SD (n = 5)
As shown below, each of these compounds has a reported Cell viability value.
Kindly answer with a numeric value in % control, unit omitted.

Please give the measured Cell viability for this compound: COc1cc(/C=C/C(=O)CC(=O)/C=C/c2ccc(O)c(OC)c2)ccc1O [Curcumin, reference compound]
100.5

###

# Test system: differentiated SH-SY5Y cells
# Test Name: Toxicity screening on differentiated SH-SY5Y cells
# Type: cell-based, human
# Test Conditions: 100 μM, MTT, mean ± SD (n = 5)
Measured Endpoint: Cell viability (% control)
Expressed in % control, but write only the number.

Worked cases, answers included:
>>> numeric_readout("COc1c(C(=O)/C=C(\\O)c2ccccc2)ccc2occc12")
103.1
>>> numeric_readout("COc1cc(/C=C/C(=O)CC(=O)/C=C/c2ccc(O)c(OC)c2)ccc1O [Curcumin, reference compound]")
79.1
>>> numeric_readout("COc1c2ccoc2cc2oc(-c3ccccc3)cc(=O)c12")
68.5

Provide the documented Cell viability with differentiated SH-SY5Y cells as the system for "O=c1cc(-c2ccccc2)oc2c1ccc1occc12"
72.4
